target-or-test-system: JAK2 (a.a. 828-1132) (Homo sapiens)
Construct: JAK2 (a.a. 828-1132); His tag (N)
Sequence (O60674 828-1132): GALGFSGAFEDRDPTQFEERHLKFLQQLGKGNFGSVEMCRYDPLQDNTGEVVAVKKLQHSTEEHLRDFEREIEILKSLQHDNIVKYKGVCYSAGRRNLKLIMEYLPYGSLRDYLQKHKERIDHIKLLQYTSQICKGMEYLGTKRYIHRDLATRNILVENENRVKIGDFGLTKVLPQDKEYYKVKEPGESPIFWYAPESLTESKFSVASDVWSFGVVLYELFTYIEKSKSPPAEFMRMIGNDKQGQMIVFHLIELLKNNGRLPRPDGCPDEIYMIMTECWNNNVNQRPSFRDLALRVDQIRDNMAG
protocol-summary: In vitro JAK kinase assay (HTRF, phosphorylation of biotinylated peptide), JAK2
Type: biochemical
condition-details: Table B; 1 mM ATP; read-out: JAK2 IC50
pIC50: −log10 of the molar value.
measured-quantity: pIC50

// pIC50 lookup, key: `CN(C)S(=O)(=O)N1CCN([C@H]2C[C@](CC#N)(n3cc(-c4ncnc5[nH]ccc45)cn3)C2)CC1` > 8.00

* * *

target-or-test-system: JAK2 (a.a. 828-1132) (Homo sapiens)
Construct: JAK2 (a.a. 828-1132); His tag (N)
protocol-summary: In vitro JAK kinase assay (HTRF, phosphorylation of biotinylated peptide), JAK2
Assay type: biochemical
condition-details: Table B; 1 mM ATP; read-out: JAK2 IC50
pIC50: −log10 of the molar value. Where a name gives a salt, the structure may show the parent alone.
This listing pairs molecules with measured pIC50.

Some molecules with recorded pIC50:
| molecule | pIC50 |
| --- | --- |
| N#CC[C@]1(n2cc(-c3ncnc4[nH]ccc34)cn2)C[C@H](N2CCN(C(=O)c3ccc(F)c(F)c3)CC2)C1 [Example 15b] | 7.60 to 8.00 |
| N#CC[C@]1(n2cc(-c3ncnc4[nH]ccc34)cn2)C[C@H](N2CCN(C(=O)N3CCCCC3)CC2)C1 | < 7.00 |
| N#CC[C@]1(n2cc(-c3ncnc4[nH]ccc34)cn2)C[C@H](N2CCN(C(=O)c3cccc(C(F)F)n3)CC2)C1 [Example 21b] | 7.60 to 8.00 |
| N#CC[C@]1(n2cc(-c3ncnc4[nH]ccc34)cn2)C[C@H](N2CCN(C(=O)c3cncc(F)c3)CC2)C1 [Example 10b, tris(trifluoroacetate) Salt] | 7.00 to 7.60 |
| CN(C)Cc1cc(F)cc(C(=O)N2CCN([C@H]3C[C@](CC#N)(n4cc(-c5ncnc6[nH]ccc56)cn4)C3)CC2)c1 | > 8.00 |

So what's the measured pIC50 for this one? N#CC[C@]1(n2cc(-c3ncnc4[nH]ccc34)cn2)C[C@H](N2CCN(C(=O)c3ccnc(C(F)F)c3F)CC2)C1 [Example 11b] 7.00 to 7.60

Queued: N#CC[C@]1(n2cc(-c3ncnc4[nH]ccc34)cn2)C[C@H](N2CCN(C(=O)c3cc(F)cc(C#N)c3)CC2)C1 [Example 12b] 7.60 to 8.00

Quick one: N#CC[C@]1(n2cc(-c3ncnc4[nH]ccc34)cn2)C[C@H](N2CCN(C(=O)Nc3ccc(F)cc3C(F)(F)F)CC2)C1 [Example 3b, (trifluoroacetate) Salt] < 7.00

// same read-out, input: `C[C@H]1CCCN1C(=O)N1CCN([C@H]2C[C@](CC#N)(n3cc(-c4ncnc5[nH]ccc45)cn3)C2)CC1` < 7.00

Subsequent entry: `N#CC[C@]1(n2cc(-c3ncnc4[nH]ccc34)cn2)C[C@H](N2CCN(C(=O)N3CCCC3)CC2)C1` < 7.00

Same again, this time with `CC[C@H]1CCCN1C(=O)N1CCN([C@H]2C[C@](CC#N)(n3cc(-c4ncnc5[nH]ccc45)cn3)C2)CC1` < 7.00

Continue with `CN(C)Cc1cc(C(=O)N2CCN([C@H]3C[C@](CC#N)(n4cc(-c5ncnc6[nH]ccc56)cn4)C3)CC2)cc(C(F)(F)F)c1` 7.00 to 7.60

Please give the result for `N#CC[C@]1(n2cc(-c3ncnc4[nH]ccc34)cn2)C[C@H](N2CCN(C(=O)c3cc(F)cc(F)c3)CC2)C1` too. > 8.00
